# tested-target: MAGL (Mus musculus (Mouse))
# Sequence (O35678 whole entry): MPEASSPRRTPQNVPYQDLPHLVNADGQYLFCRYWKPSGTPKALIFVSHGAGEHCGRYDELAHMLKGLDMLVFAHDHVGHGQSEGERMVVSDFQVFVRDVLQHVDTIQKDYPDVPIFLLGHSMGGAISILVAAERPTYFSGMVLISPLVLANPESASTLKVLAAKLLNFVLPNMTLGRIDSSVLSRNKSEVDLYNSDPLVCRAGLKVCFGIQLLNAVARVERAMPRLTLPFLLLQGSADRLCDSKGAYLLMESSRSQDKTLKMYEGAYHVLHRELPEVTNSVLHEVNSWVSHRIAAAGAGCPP

compound | IC50
CC(=O)N(C)c1cnn(C(=O)N2CCC3(CCN(Cc4cccc(C(F)(F)F)c4)C3)C2)c1 (single isomer, unassigned) [Example 65] | 100 to 1000 nM
CC(=O)N(C)c1cnn(C(=O)N2C[C@H]3C[C@@H](N(C)Cc4cc(N5C6CCC5COC6)cc(C(F)(F)F)c4)C[C@H]3C2)c1 | 100 to 1000 nM
CC(=O)N(C)c1cnn(C(=O)N2CCC3(CCN(Cc4cccc(C(F)(F)F)c4)C3)C2)c1 (single isomer, unassigned) [Example 66] | 100 to 1000 nM
CC(=O)N(C)c1cnn(C(=O)N2CCN(Cc3cccc(C)c3)CC2)c1 | ≤ 100 nM
CC(=O)N(C)c1cnn(C(=O)N2CCN(Cc3ccccc3C)CC2)c1 | 100 to 1000 nM
CC(=O)N(C)c1cnn(C(=O)N2CCC3(CCN(Cc4ccc(Cl)cc4)C3)CC2)c1 | 100 to 1000 nM
CC(=O)N(C)c1cnn(C(=O)N2CC3CN(Cc4ccccc4C)CC3C2)c1 (stereo not drawn) | 100 to 1000 nM
CC(=O)N(C)c1cnn(C(=O)N2CC3CN(Cc4cc(Cl)cc(Cl)c4)CC3C2)c1 (stereo not drawn) | ≤ 100 nM
CC(=O)N(C)c1cnn(C(=O)N2CC3CN(Cc4ccc(OCc5ccccc5)cc4)CC3C2)c1 (stereo not drawn) | ≤ 100 nM

Origin of measurements: patent US10323038B2
